Below, each of the compounds is paired with its reported inhibition value.
assayed system: Ubiquitin carboxyl-terminal hydrolase 8 (Homo sapiens) (UniProt P40818)
Sequence (P40818 whole entry, looked up): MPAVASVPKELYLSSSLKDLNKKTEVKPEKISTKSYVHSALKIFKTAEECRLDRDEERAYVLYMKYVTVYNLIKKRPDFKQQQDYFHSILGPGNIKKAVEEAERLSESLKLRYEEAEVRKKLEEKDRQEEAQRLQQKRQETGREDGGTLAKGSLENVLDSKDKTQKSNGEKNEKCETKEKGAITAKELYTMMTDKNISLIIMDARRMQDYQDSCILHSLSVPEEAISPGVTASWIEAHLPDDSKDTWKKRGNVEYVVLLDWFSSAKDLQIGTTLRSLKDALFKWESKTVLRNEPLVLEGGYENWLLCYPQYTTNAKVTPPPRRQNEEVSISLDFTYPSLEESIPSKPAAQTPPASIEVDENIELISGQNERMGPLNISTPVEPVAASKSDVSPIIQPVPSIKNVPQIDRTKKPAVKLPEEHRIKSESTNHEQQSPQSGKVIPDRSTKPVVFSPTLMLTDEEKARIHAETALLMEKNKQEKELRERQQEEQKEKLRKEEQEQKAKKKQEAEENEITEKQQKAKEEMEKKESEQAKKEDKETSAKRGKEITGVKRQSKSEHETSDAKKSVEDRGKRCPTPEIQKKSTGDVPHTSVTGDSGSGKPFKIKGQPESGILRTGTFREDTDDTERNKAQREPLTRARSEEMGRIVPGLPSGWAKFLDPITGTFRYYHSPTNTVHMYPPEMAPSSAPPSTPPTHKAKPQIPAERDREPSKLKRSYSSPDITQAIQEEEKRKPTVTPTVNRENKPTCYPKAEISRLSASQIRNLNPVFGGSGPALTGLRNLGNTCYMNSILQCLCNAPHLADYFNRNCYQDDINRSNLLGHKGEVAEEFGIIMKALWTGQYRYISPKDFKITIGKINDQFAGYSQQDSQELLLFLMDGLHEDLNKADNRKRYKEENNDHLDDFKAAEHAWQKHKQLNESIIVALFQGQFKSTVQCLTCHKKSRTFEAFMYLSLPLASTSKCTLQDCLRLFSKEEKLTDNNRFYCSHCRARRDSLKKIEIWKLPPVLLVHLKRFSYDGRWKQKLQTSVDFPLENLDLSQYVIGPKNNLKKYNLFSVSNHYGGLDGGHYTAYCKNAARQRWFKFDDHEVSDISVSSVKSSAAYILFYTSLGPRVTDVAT
procedure summary: blocks human USP8 ubiquitin-rhodamine cleavage (AID 1645853)
settings: purified USP8, Ub-rhodamine cleavage fluorescence, 30 min; at 20 µM; stronger effect = higher value
The campaign covered roughly 47,000 compounds. About 2,000 (4.3%) were called active. This excerpt belongs to a sample that is enriched for actives.
experimental endpoint: inhibition (%)

INSERT INTO measurements (compound, assayed_system, measured) VALUES
  ('Cc1cc(=O)n(CC(=O)Nc2ccc3c(c2)OCO3)c2c1c(-c1ccccc1)nn2-c1ccccc1', 'Ubiquitin carboxyl-terminal hydrolase 8 (Homo sapiens) (UniProt P40818)', 67.9),
  ('O=C(NCc1ccccc1)c1nc[nH]c1C(=O)NCc1cccc(C(F)(F)F)c1', 'Ubiquitin carboxyl-terminal hydrolase 8 (Homo sapiens) (UniProt P40818)', -114),
  ('CC1(C)Cc2c(c(-c3ccco3)nc3sc4c(SCCCc5ccccc5)ncnc4c23)CO1', 'Ubiquitin carboxyl-terminal hydrolase 8 (Homo sapiens) (UniProt P40818)', 75.7),
  ('CCOC(=O)C1CCN(S(=O)(=O)c2cc3[nH]c4c(c3cc2CC)C(=O)CCC4)CC1', 'Ubiquitin carboxyl-terminal hydrolase 8 (Homo sapiens) (UniProt P40818)', -25.1),
  ('CCc1cc(=O)n(CC(=O)Nc2cc(C)on2)c(-c2ccccc2)n1', 'Ubiquitin carboxyl-terminal hydrolase 8 (Homo sapiens) (UniProt P40818)', -44.3),
  ('COc1cc(C2CCN(S(=O)(=O)c3cccc(C#N)c3)CC2)on1', 'Ubiquitin carboxyl-terminal hydrolase 8 (Homo sapiens) (UniProt P40818)', -4.99),
  ('COC(=O)c1cc2sc(Cl)cc2n1Cc1cc(=O)n2ccccc2n1', 'Ubiquitin carboxyl-terminal hydrolase 8 (Homo sapiens) (UniProt P40818)', -9.48),
  ('O=C(Cc1cccc(C(F)(F)F)c1)Nc1cccn2ncnc12', 'Ubiquitin carboxyl-terminal hydrolase 8 (Homo sapiens) (UniProt P40818)', 2.29),
  ('Cc1cccc(CNC(=O)CN2C(=O)C3CCCN3C(=O)c3cccc(C)c32)c1 (stereo unspecified)', 'Ubiquitin carboxyl-terminal hydrolase 8 (Homo sapiens) (UniProt P40818)', 5.77),
  ('Cc1ccc(S(=O)(=O)Oc2cccnc2)c(C)c1F', 'Ubiquitin carboxyl-terminal hydrolase 8 (Homo sapiens) (UniProt P40818)', 10.5),
  ('O=C(Nc1ccc2cn[nH]c2c1)c1cnn(-c2ccccc2)n1', 'Ubiquitin carboxyl-terminal hydrolase 8 (Homo sapiens) (UniProt P40818)', 59.1),
  ('CC(C)OC(=O)c1cc2c(ccn2-c2ccc(F)cc2)n1Cc1ccccn1', 'Ubiquitin carboxyl-terminal hydrolase 8 (Homo sapiens) (UniProt P40818)', 64),
  ('CCCCN(c1ccccc1)S(=O)(=O)c1cccc(C(=O)OCC(=O)NCc2ccc3c(c2)OCO3)c1', 'Ubiquitin carboxyl-terminal hydrolase 8 (Homo sapiens) (UniProt P40818)', 22.8),
  ('O=C(Nc1ccc2oc(-c3ccccc3)nc2c1)c1cccc(-n2cnnc2)n1', 'Ubiquitin carboxyl-terminal hydrolase 8 (Homo sapiens) (UniProt P40818)', 3.67),
  ('CCC1=N[C@@]2(CC[C@@H]3CN(C(=O)Nc4ccc(CC)cc4)C[C@@H]32)C(=O)N1C', 'Ubiquitin carboxyl-terminal hydrolase 8 (Homo sapiens) (UniProt P40818)', -21.1),
  ('CSc1ncnc2c1sc1nc(-c3ccccc3)c3c(c12)CC(C)(C)OC3', 'Ubiquitin carboxyl-terminal hydrolase 8 (Homo sapiens) (UniProt P40818)', 2.79),
  ('O=C(Cc1c(Cl)cccc1Cl)NCc1cccc(C(F)(F)F)c1', 'Ubiquitin carboxyl-terminal hydrolase 8 (Homo sapiens) (UniProt P40818)', 49.9),
  ('CCOC(=O)c1cc2c(ccn2-c2ccc(F)cc2)n1Cc1ncc(C)c(OC)c1C', 'Ubiquitin carboxyl-terminal hydrolase 8 (Homo sapiens) (UniProt P40818)', 3.2),
  ('Cc1nc2cc(-c3noc(-c4sc(C)nc4C)n3)ccc2o1', 'Ubiquitin carboxyl-terminal hydrolase 8 (Homo sapiens) (UniProt P40818)', 7.81),
  ('COc1cccc(CNC(=O)c2nnn(CC(=O)Nc3cc(C)ccc3C)c2N)c1', 'Ubiquitin carboxyl-terminal hydrolase 8 (Homo sapiens) (UniProt P40818)', 67.9),
  ('CN(c1ccccc1)c1nc(=O)n(CC(=O)Nc2ccc3c(c2)OCCO3)c2ccccc12', 'Ubiquitin carboxyl-terminal hydrolase 8 (Homo sapiens) (UniProt P40818)', -40.3);

###

assayed system: Ubiquitin carboxyl-terminal hydrolase 8 (Homo sapiens)
procedure summary: blocks human USP8 ubiquitin-rhodamine cleavage (AID 1645853)
settings: purified USP8, Ub-rhodamine cleavage fluorescence, 30 min; at 20 µM
About 2,000 (4.3%) of roughly 47,000 compounds were called active. Rule as the data show it: active = inhibition above about 30%; inactive = the rest. Shown is part of a subset that was picked to be rich in actives.
Possible outcomes: active, inactive

INSERT INTO results (compound, group_label) VALUES
  ('O=C(NCC1CC1)[C@H]1C[C@@H]2CN(CC3CC3)C[C@H]1O2', 'inactive'),
  ('O=C(NCCc1ccccc1)c1ccc2c(=O)n(Cc3ccco3)c(=O)n(Cc3cccc([N+](=O)[O-])c3)c2c1', 'active'),
  ('Cc1ccc(NC(=O)CCn2cnc3c2c(=O)n(C)c(=O)n3C)cc1', 'inactive'),
  ('COc1cccc(CNC(=O)c2ccc(-c3cncnc3)nc2)c1', 'inactive'),
  ('Cc1cc(OCC(=O)Oc2ccc(-n3cnnn3)cc2)cc(C)c1Cl', 'active'),
  ('O=C(Cn1c(=O)n(Cc2ccc3c(c2)OCO3)c(=O)c2ccccc21)NCc1ccco1', 'inactive'),
  ('Nc1c(-c2ccc(Cl)cc2)cnc2c(-c3ccccc3)c(COc3ccccc3)nn12', 'inactive'),
  ('CCCCN(C)c1ccc2nnc(CCc3nc(-c4cc(OC)cc(OC)c4)no3)n2n1', 'active'),
  ('CC1(C)CCC2(C(=O)O)CC[C@]3(C)C(=CC[C@@H]4[C@@]5(C)CCC(O)C(C)(C)[C@@H]5CC[C@]43C)C2C1 (stereo partly specified)', 'inactive'),
  ('O=C(NC1CCCCC1)c1ccc2c(=O)nc3c(-c4ccccc4F)n[nH]n3c2c1', 'active'),
  ('O=C(C1CCC1)N1CCCN(c2ccc([N+](=O)[O-])cn2)CC1', 'inactive'),
  ('Cc1ccc(Nc2nc(O)c(CC(=O)Nc3ccc(C(C)C)cc3)s2)cc1C', 'inactive'),
  ('CC(C)NC(=O)c1cccc(-n2cnnn2)c1', 'inactive'),
  ('O=C(NCc1ccco1)c1ccc2c(=O)nc3c(-c4ccc(F)cc4)n[nH]n3c2c1', 'inactive'),
  ('COc1ccc(C(=O)N2CCc3cc4ccccc4nc32)cc1OC', 'inactive'),
  ('COc1ccc(-c2noc(CN(C3CCCCC3)S(=O)(=O)c3ccc(OC)cc3)n2)cc1', 'inactive'),
  ('Cc1ccc(NC(=O)Cc2sc(Nc3ccc(C)cc3)nc2O)cc1', 'active'),
  ('O=C(Nc1ccccc1F)NC1CCCN(c2cc(-c3ccncc3)[nH]n2)C1 (stereo unspecified)', 'inactive'),
  ('COc1cccc(CCC(=O)N2CCN(c3cc(C)n4cnnc4n3)CC2)c1', 'inactive'),
  ('COc1cc(C(=O)N(c2ccccn2)C2CCCCC2)cc(OC)c1OC', 'inactive'),
  ('COc1cccc(-c2noc(CN3CCCC3c3cc(OC)ccc3OC)n2)c1 (stereo unspecified)', 'inactive');

###

Below, each of the compounds is paired with its reported inhibition value.
assayed system: Ubiquitin carboxyl-terminal hydrolase 8 (Homo sapiens) (UniProt P40818)
procedure summary: blocks human USP8 ubiquitin-rhodamine cleavage (AID 1645853)
settings: purified USP8, Ub-rhodamine cleavage fluorescence, 30 min; at 20 µM; stronger effect = higher value
Hit rate of the full screen: of about 47,000 compounds, about 2,000 (4.3%) were called active. For the sample, actives were picked, then their nearest neighbours and some compounds at random.
experimental endpoint: inhibition (%)

INSERT INTO measurements (compound, assayed_system, experimental_endpoint, measured) VALUES
  ('Cc1nc(-c2ccc(C(=O)NCc3ccc4c(c3)OCO4)cc2)cs1', 'Ubiquitin carboxyl-terminal hydrolase 8 (Homo sapiens) (UniProt P40818)', 'inhibition', 7.04),
  ('CC(=O)N[C@@]12CN(C)CC[C@@H]1[C@@H](c1ccccc1)N(CC(=O)Nc1cc(F)ccc1C)C2', 'Ubiquitin carboxyl-terminal hydrolase 8 (Homo sapiens) (UniProt P40818)', 'inhibition', -5.94),
  ('Cc1nonc1C(=O)NCC(=O)N1Cc2ccccc2OC2(CCOCC2)C1', 'Ubiquitin carboxyl-terminal hydrolase 8 (Homo sapiens) (UniProt P40818)', 'inhibition', 20.5),
  ('Cc1ccccc1NC(=O)Cc1csc2nc(-c3ccc(F)cc3)cn12', 'Ubiquitin carboxyl-terminal hydrolase 8 (Homo sapiens) (UniProt P40818)', 'inhibition', 85.8),
  ('Cc1cc(C)nc(-n2nc(C)c(C#N)c2NC(=O)c2cccc(Cl)c2)n1', 'Ubiquitin carboxyl-terminal hydrolase 8 (Homo sapiens) (UniProt P40818)', 'inhibition', 2.08),
  ('N#Cc1cccc(S(=O)(=O)N2CCC3(CC2)OC(=O)Nc2ccccc23)c1', 'Ubiquitin carboxyl-terminal hydrolase 8 (Homo sapiens) (UniProt P40818)', 'inhibition', 10.6),
  ('O=C(NCc1ccc2c(c1)OCO2)c1cc2c(s1)CS(=O)(=O)C2', 'Ubiquitin carboxyl-terminal hydrolase 8 (Homo sapiens) (UniProt P40818)', 'inhibition', 47.6),
  ('COc1ccc(NC(=O)CSc2ncccc2C(=O)N2CCC(Cc3ccccc3)CC2)cc1OC', 'Ubiquitin carboxyl-terminal hydrolase 8 (Homo sapiens) (UniProt P40818)', 'inhibition', -0.608),
  ('Cc1cc(F)ccc1NC(=O)Cc1n[nH]c(Cc2ccccc2)n1', 'Ubiquitin carboxyl-terminal hydrolase 8 (Homo sapiens) (UniProt P40818)', 'inhibition', 2.95),
  ('O=C(CC1C(=O)OCCN1Cc1ccccc1)Nc1cccc(F)c1 (stereo not given)', 'Ubiquitin carboxyl-terminal hydrolase 8 (Homo sapiens) (UniProt P40818)', 'inhibition', -10.4);
